Test system: Plasmodium falciparum
Assay: In vitro inhibitory concentration against chloroquine-resistant Plasmodium falciparum K1
Assay type: functional, organism-based
VALUE_KIND: pIC50
pIC50 field: float, defined as -log10 of concentration (mol/L).

Some molecules with known pIC50 results, for comparison:
MOLECULE	ASSAY_VALUE
C[C@H]1[C@@H](OCc2cccc(CN3CCN(c4ccc(F)cc4)CC3)c2)O[C@@H]2OC3(C)CCC4[C@H](C)CC[C@@H]1[C@]42OO3 (single isomer, unassigned)	7.90
C[C@H]1[C@@H](OCc2ccc(CN3CCN(c4ccc(C(F)(F)F)cc4)CC3)cc2)O[C@@H]2OC3(C)CCC4[C@H](C)CC[C@@H]1[C@]42OO3 (single isomer, unassigned)	7.90
C[C@H]1[C@@H](OCc2ccc(CN3CCN(c4ccc(F)cc4)CC3)cc2)O[C@@H]2OC3(C)CCC4[C@H](C)CC[C@@H]1[C@]42OO3 (single isomer, unassigned)	8.20
C[C@H]1[C@@H](CCN2CCN(c3ccccc3)CC2)O[C@@H]2OC3(C)CCC4[C@H](C)CC[C@@H]1[C@]42OO3 (single isomer, unassigned)	8.50
CCCN(CCC)CC[C@H]1O[C@@H]2O[C@]3(C)CC[C@H]4[C@H](C)CC[C@@H]([C@H]1C)[C@@]24OO3	8.12
C[C@H]1[C@@H](CCN2CCN(c3cccc(C(F)(F)F)c3)CC2)O[C@@H]2OC3(C)CCC4[C@H](C)CC[C@@H]1[C@]42OO3 (single isomer, unassigned)	8.21
CO[C@H]1O[C@@H]2O[C@@]3(C)CC[C@H]4[C@H](C)CC[C@@H]([C@H]1C)[C@@]24OO3	8.19
C[C@H]1[C@@H](OCc2ccc(CN3CCN(c4ccc([N+](=O)[O-])cc4)CC3)cc2)O[C@@H]2OC3(C)CCC4[C@H](C)CC[C@@H]1[C@]42OO3 (single isomer, unassigned)	6.86

Ask: Would you mind telling me what pIC50 value was observed for C[C@H]1[C@@H](OCc2cccc(CN3CCN(c4ccccc4)CC3)c2)O[C@@H]2OC3(C)CCC4[C@H](C)CC[C@@H]1[C@]42OO3 (single isomer, unassigned) ?
Result: 8.18

Ask: What does the data say about its pIC50? Entry: C[C@H]1[C@@H](CCN2CCN(c3ccc([N+](=O)[O-])cc3)CC2)O[C@@H]2OC3(C)CCC4[C@H](C)CC[C@@H]1[C@]42OO3 (single isomer, unassigned)
Result: 8.37

Ask: Request the reported pIC50 associated with C[C@H]1[C@@H](CCN2CCOCC2)O[C@@H]2OC3(C)CCC4[C@H](C)CC[C@@H]1[C@]42OO3 (single isomer, unassigned)
Result: 8.37

Reference source for all entries: ChEMBL document CHEMBL1135984
